The entries below come with measured soluble fraction (log2) values attached.
assay: soluble fraction after stress (log2 fold change); higher = more stays soluble; pooled small domains, quantitative proteomics; conditions: stress: 50 degC
recorded.endpoint: soluble fraction (log2)

primary.sequence	data.value
HMQLPFTPREHEITQLLSRGLSNRQIAEALSLSVRTVEGHIYQASTKLGISSRSELAVLVGQFA	-1.89
HMTYSSESVRYRIKSLIDNETIDEILSDDKIVNILKSQGIDVARRTVAKYREAMGLASSIQRRREKKSA	-0.375
HMTQHDIVPLMLKMVDVLTQFVELDIPFLQQERQTRLAALNAMMGRADVSLAEKYRRIMEAYQVETEYG	-0.0938
HMSAPQKWDGSLQDFIRFKQEAKTLMDNIPNKRLALNAILETISDGKMRKRLAKYDGPESALKSLELEFGN	-0.0592
HMRISKRQLILESAAAIINEKGADYLTLDAVAQRAGISKGGLFYHFKSKDELIKELVNYANN	-0.14
HMEPEVEITYFKPDERKAGGAYVTVTGAVIKVDDFERLITMQDGTKIPMDDILSIDGELFLS	-0.333
HMGYDSYDADTIPKLKIGSIVEHPKFGEGSIISKAGAEVTIAFKIKGVKKINLEYTSIKVLK	-0.935
HMLPLHFIEIVSLKKIDTLTKRKELINYAFSKNEKTYIYKLAFKKKSELDNLYKEINLFNEIINIDIRHS	-0.615
HMVAQEVPYSTFVMRLDRNEVDAVKIIDGNEIEGTFKSPNGDLVQFKTLIPYQDTELMPLLKQKGVRISGS	0.386
HMSETQDQTTIEIEDMITVGTLAERLSIPVSTLIGELMKNGVMATVNEKIDFDTAQIIVGELKLPIELSKK	0.201
HMRPQELSSLNTNQMRLYNSLPEAFITAEAKDIADKLRYSERSLFRFLNESNLFTKTEHGSYAKKA	0.133
HMLLPANLTKSQRNIAERVARGQSNLEIAADLNITERTVKAHLTSIYEKTKTGNRLNLALLINLG	-0.442
HMRVKLVKKSILASGGENIRVDKFLSNHILTMTRTQIKKLFLDGLVQVNKSFVKPGSILKGNEIITFSIPE	-1.8
HMIINKFERRKEIQIQFNNQERIKFKDFFLNLSKENIIVSFLILLELVRESLIDFSGTNENDIEFFIK	-2.3
